testSystem: Flt3 (h) (Homo sapiens, UniProt P36888)
Construct: purchased Eurofins
assayDetails: Radioisotope labeling kinase assay (Eurofins), Flt3
Assay type: biochemical
experimentalParameters: 1 μM compound; read-out: Inhibitory activity per unit concentration/Activity % Flt3 (h)
readoutLabel: activity at 1 µM (%)
A number alone suffices; assume %.

Record excerpt, results attached:
CN(C)C/C=C/C(=O)Nc1cc2cc(c1)Nc1nccc(n1)-c1cccc(c1)COC/C=C/CN(C)C2 ... 7
O=C(/C=C/COc1cc2cc(c1)Nc1nccc(n1)-c1cccc(c1)COC/C=C/COC2)N1CCCC1 ... 24
C/C=C/C(=O)Nc1cc2cc(c1)Nc1nccc(n1)-c1cccc(c1)COC/C=C/COC2 ... 5
CN1C/C=C/COCc2cccc(c2)-c2ccnc(n2)Nc2cc(cc(NC(=O)/C=C/c3cnc[nH]3)c2)C1 ... 5
O=C(/C=C/CN1CCC(O)C1)Nc1cc2cc(c1)Nc1nccc(n1)-c1cccc(c1)COC/C=C/COC2 (stereo not shown) ... 19
C=CC(=O)Nc1cc2cc(c1)Nc1nccc(n1)-c1cccc(c1)COC/C=C/CN(C)C2 ... 7

Entry O=C(/C=C/CN1CCOCC1)Nc1cc2cc(c1)Nc1nccc(n1)-c1cccc(c1)COC/C=C/COC2 , activity at 1 µM reported as 3

====

The entries below come with measured activity at 1 µM values attached.
testSystem: Flt3 (D835Y) (h) (Homo sapiens, UniProt P36888, D835Y)
Construct: purchased Eurofins
Sequence (P36888 27-993 D835Y): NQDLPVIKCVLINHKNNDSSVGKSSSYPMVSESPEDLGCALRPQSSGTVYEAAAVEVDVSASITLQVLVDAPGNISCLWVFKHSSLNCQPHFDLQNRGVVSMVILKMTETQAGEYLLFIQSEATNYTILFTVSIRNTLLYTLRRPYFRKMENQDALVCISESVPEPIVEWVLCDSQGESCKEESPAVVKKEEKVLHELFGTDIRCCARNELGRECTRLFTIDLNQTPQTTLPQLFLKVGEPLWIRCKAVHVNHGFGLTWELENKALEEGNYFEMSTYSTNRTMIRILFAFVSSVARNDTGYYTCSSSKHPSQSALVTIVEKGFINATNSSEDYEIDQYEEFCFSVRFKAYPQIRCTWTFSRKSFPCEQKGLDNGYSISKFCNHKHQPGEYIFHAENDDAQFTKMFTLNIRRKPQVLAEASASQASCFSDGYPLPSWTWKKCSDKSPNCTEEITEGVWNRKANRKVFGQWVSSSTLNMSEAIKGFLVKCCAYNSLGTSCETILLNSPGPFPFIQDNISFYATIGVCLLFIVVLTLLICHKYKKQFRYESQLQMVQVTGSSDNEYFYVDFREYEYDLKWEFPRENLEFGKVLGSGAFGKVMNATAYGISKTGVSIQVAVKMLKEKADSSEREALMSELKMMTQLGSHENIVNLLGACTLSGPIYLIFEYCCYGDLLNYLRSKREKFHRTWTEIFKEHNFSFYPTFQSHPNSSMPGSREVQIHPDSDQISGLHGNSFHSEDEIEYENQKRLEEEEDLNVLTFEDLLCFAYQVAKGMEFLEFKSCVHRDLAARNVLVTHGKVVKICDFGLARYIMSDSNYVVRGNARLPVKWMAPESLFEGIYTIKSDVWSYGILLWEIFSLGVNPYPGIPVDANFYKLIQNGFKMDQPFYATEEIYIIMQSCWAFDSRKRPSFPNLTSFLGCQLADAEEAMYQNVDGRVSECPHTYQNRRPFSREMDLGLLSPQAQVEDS
assayDetails: Radioisotope labeling kinase assay (Eurofins), Flt3 (D835Y)
Assay type: biochemical
experimentalParameters: 1 μM compound; read-out: Inhibitory activity per unit concentration/Activity % Flt3 (D835Y) (h)
Expressed in %, but write only the number.

Nc1cc2cc(c1)Nc1nccc(n1)-c1cccc(c1)COC/C=C/COC2 [XIII-1] ... -1
CN1C/C=C/COCc2cccc(c2)-c2ccnc(n2)Nc2cc(cc(NC(=O)/C=C/c3ccc(C#N)cc3)c2)C1 [XVI-27] ... 2

activity at 1 µM of O=C(/C=C/C(=O)N1CCNCC1)Nc1cc2cc(c1)Nc1nccc(n1)-c1cccc(c1)COC/C=C/COC2 [XVI-11] , assay on Flt3 (D835Y) (h) (Homo sapiens, UniProt P36888, D835Y), is 1

Known value: Flt3 (D835Y) (h) (Homo sapiens, UniProt P36888, D835Y) activity at 1 µM of the molecule O=C(/C=C/CNC1CCOC1)Nc1cc2cc(c1)Nc1nccc(n1)-c1cccc(c1)COC/C=C/COC2 (centres unmarked) [XVI-15] equals 6

Known value: Flt3 (D835Y) (h) (Homo sapiens, UniProt P36888, D835Y) activity at 1 µM of the molecule CN(C)C/C=C/C(=O)Nc1cc2cc(c1)Nc1nccc(n1)-c1cccc(c1)COC/C=C/CN(C)C2 [XVI-26] equals 0

Hey, Flt3 (D835Y) (h) (Homo sapiens, UniProt P36888, D835Y) data for CN1C/C=C/COCc2cccc(c2)-c2ccnc(n2)Nc2cc(N)cc(c2)C1 [XIII-2] : activity at 1 µM came out at 1

The molecule C/C=C/C(=O)Nc1cc2cc(c1)Nc1nccc(n1)-c1cccc(c1)COC/C=C/CN(C)C2 [XVI-28] on Flt3 (D835Y) (h) (Homo sapiens, UniProt P36888, D835Y): activity at 1 µM was 1

O=C(/C=C/CNC1CCOC1)Nc1cc2cc(c1)Nc1nccc(n1)-c1cccc(c1)CCC/C=C/COC2 (centres unmarked) [XVI-19] on Flt3 (D835Y) (h) (Homo sapiens, UniProt P36888, D835Y) gives activity at 1 µM = -3

====

testSystem: Flt3 (D835Y) (h) (Homo sapiens, UniProt P36888, D835Y)
Construct: purchased Eurofins
Sequence (P36888 27-993 D835Y): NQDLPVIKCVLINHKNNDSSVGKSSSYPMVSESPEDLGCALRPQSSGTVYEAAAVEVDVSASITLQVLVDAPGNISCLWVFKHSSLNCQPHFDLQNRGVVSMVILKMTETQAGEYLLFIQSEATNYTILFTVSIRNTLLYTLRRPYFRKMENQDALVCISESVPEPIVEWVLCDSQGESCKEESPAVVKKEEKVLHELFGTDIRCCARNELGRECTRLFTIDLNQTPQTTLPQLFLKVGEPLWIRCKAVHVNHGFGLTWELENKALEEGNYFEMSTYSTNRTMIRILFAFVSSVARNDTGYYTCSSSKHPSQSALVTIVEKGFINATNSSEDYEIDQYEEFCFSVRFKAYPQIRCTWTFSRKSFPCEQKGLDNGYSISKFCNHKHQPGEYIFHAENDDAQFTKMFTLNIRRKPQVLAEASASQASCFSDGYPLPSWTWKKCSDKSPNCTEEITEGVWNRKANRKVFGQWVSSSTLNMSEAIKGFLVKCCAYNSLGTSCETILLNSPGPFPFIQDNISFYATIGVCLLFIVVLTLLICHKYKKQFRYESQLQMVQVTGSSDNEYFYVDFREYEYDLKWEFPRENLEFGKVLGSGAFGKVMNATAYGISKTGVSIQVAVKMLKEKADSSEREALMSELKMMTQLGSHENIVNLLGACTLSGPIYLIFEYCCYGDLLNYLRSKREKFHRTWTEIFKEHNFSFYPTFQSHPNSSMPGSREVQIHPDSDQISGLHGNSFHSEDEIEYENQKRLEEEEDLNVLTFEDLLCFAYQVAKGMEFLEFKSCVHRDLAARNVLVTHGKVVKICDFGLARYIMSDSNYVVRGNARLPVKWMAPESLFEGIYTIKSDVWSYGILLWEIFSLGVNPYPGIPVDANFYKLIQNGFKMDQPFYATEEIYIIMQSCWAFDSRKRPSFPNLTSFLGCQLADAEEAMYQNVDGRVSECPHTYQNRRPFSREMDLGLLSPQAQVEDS
assayDetails: Radioisotope labeling kinase assay (Eurofins), Flt3 (D835Y)
Assay type: biochemical
experimentalParameters: 1 μM compound; read-out: Inhibitory activity per unit concentration/Activity % Flt3 (D835Y) (h)
readoutLabel: activity at 1 µM
Value and unit, in that order.

C=CC(=O)Nc1cc2cc(c1)Nc1nccc(n1)-c1cccc(c1)COC/C=C/COC2 ... -1%
C1=C/COCc2cccc(c2)-c2ccnc(n2)Nc2cc(cc(OC/C=C/CN3CCOCC3)c2)COC/1 ... -1%
O=C(/C=C/COc1ccc2cc1Nc1nccc(n1)-c1cccc(c1)COC/C=C/COC2)N1CCCC1 ... 44%
O=C(/C=C/COc1cc2cc(c1)Nc1nccc(n1)-c1cccc(c1)COC/C=C/COC2)N1CCCC1 ... -2%

Measured activity at 1 µM, O=C(/C=C/CN1CCCC1)Nc1cc2cc(c1)Nc1nccc(n1)-c1cccc(c1)COC/C=C/COC2 : -1%

Recorded activity at 1 µM (molecule C1=C/COCc2ccc(OC/C=C/CN3CCOCC3)c(c2)Nc2nccc(n2)-c2cccc(c2)COC/1 ): 27%

Quick note, activity at 1 µM for O=C(/C=C/C(=O)N1CCOCC1)Nc1cc2cc(c1)Nc1nccc(n1)-c1cccc(c1)COC/C=C/COC2 landed at 5%

Looking up CN(C)C/C=C/C(=O)Nc1cc2cc(c1)Nc1nccc(n1)-c1cccc(c1)COC/C=C/COC2 , I found its activity at 1 µM recorded as -2%

Entry O=C(C#CCN1CCOCC1)Nc1cc2cc(c1)Nc1nccc(n1)-c1cccc(c1)COC/C=C/COC2 — recorded activity at 1 µM = 0%

Kindly note the recorded activity at 1 µM for O=C(/C=C/CN1CCC(O)C1)Nc1cc2cc(c1)Nc1nccc(n1)-c1cccc(c1)COC/C=C/COC2 (stereo not shown) , which is 4%

What the record says about CCCC#CC(=O)Nc1cc2cc(c1)Nc1nccc(n1)-c1cccc(c1)COC/C=C/COC2 : activity at 1 µM is -1%

Record summary for O=C(/C=C/c1cnc[nH]1)Nc1cc2cc(c1)Nc1nccc(n1)-c1cccc(c1)COC/C=C/COC2 : reported activity at 1 µM = -1%

The molecule CCCC#CC(=O)Nc1cc2cc(c1)Nc1nccc(n1)-c1cccc(c1)COC/C=C/CN(C)C2 showed activity at 1 µM equal to 3%

Hello, the source for this data is patent US20240425518A1, in case you need it.
